experimentalSystem: human recombinant 11β-HSD1 (Homo sapiens)
Construct: made in house
Sequence (P28845 whole entry): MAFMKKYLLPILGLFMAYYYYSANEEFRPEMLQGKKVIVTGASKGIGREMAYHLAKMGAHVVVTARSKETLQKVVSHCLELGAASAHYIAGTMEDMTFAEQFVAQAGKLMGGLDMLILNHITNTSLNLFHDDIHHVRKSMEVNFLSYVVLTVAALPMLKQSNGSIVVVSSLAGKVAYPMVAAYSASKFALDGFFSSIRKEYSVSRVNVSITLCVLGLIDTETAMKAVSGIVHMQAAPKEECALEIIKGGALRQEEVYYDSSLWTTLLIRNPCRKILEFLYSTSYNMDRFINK
assayProcedure: Measuring test for human 11β-HSD1 inhibitory activity (HTRF cortisol detection)
Assay type: biochemical
experimentalConditions: human recombinant 11β-HSD1, 200 nM cortisone, 40 μM NADPH, pH 6.6, room temperature 1 h
Where a name gives a salt, the structure may show the parent alone.
For each record, check the reported IC50: if it is below 0.01 µM write met, else write not met.

>>> labelclass("CCn1c(N2CCc3[nH]ncc3C2)nnc1C(C)(C)Oc1c(F)cc(F)cc1F [Example 87, dihydrochloride]")
"not met"
>>> labelclass("CC(C)n1c(-c2ccc(C(N)=O)cc2)nnc1C(C)(C)Oc1c(F)cc(Cl)cc1F [Example 535]")
"not met"
>>> labelclass("CC(C)n1c(-c2ccc(C(N)=O)cc2)nnc1C(C)(C)Oc1c(F)cccc1F [Example 616]")
"not met"
>>> labelclass("CCn1c(-c2ccc3c(c2)CNC3=O)nnc1C(C)(C)Oc1c(F)cc(F)cc1F [Example 518]")
"met"
>>> labelclass("Cn1c(-c2ccccc2C(F)(F)F)nnc1C(C)(C)Oc1ccc(C(F)(F)F)cc1Cl [Example 204]")
"not met"

* * *

experimentalSystem: human recombinant 11β-HSD2 (Homo sapiens, UniProt P80365)
Sequence (P80365 whole entry): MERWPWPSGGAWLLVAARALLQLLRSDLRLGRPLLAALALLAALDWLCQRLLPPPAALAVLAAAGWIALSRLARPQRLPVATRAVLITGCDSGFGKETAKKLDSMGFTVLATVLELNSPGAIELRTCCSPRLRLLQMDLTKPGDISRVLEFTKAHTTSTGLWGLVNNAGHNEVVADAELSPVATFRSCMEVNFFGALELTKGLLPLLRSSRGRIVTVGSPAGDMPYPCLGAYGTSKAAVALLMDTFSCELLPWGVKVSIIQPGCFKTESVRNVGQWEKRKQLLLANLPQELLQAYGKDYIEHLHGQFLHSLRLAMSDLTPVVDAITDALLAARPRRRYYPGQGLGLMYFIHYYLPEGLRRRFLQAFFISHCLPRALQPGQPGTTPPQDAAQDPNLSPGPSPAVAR
assayProcedure: Measuring test for human 11β-HSD2 inhibitory activity (HTRF cortisol detection)
Type: biochemical
experimentalConditions: human recombinant 11β-HSD2, 200 nM cortisol, 200 μM NAD, pH 8.0, 37° C. 2 h
Counter-ions that a name gives are not always drawn.
measuredParameter: IC50

>>> experimentalvalue("Cn1c(-c2ccc(F)cc2Br)nnc1C(C)(C)Oc1ccc(Cl)cc1")
"> 10 µM"
>>> experimentalvalue("CC(C)n1c(-c2ccc(C(N)=O)cc2)nnc1C(C)(C)Oc1c(F)cccc1F")
"> 10 µM"
>>> experimentalvalue("CCn1c(-c2ccc3cn[nH]c3c2)nnc1C(C)(C)Oc1c(F)cc(Cl)cc1F")
"> 10 µM"
>>> experimentalvalue("CC(C)n1c(-c2ccc(C(N)=O)cc2)nnc1C(C)(C)Oc1c(F)cc(Cl)cc1F")
"> 10 µM"
>>> experimentalvalue("Cn1c(-c2ccc(C(N)=O)cc2Cl)nnc1C(C)(C)Oc1c(F)cc(F)cc1F")
"> 3 µM"
>>> experimentalvalue("Cn1c(-c2ccc(F)c3ccccc23)nnc1C(C)(C)Oc1c(F)cc(F)cc1F")
"> 100 µM"
>>> experimentalvalue("Cn1c(-c2ccc(F)cc2Cl)nnc1C(C)(C)Oc1c(F)cc(F)cc1F [Example 65, monohydrochloride]")
"> 3 µM"
>>> experimentalvalue("Cn1c(-c2ccccc2C(F)(F)F)nnc1C(C)(C)Oc1ccc(Cl)cc1-c1nnco1")
"> 3 µM"
>>> experimentalvalue("Cn1c(-c2ccc(C(N)=O)cc2F)nnc1C(C)(C)Oc1c(F)cc(Cl)cc1F")
"> 3 µM"
>>> experimentalvalue("Cn1c(-c2ccc(C(N)=O)cc2Cl)nnc1C(C)(C)Oc1c(F)cc(Cl)cc1F")
"> 3 µM"
>>> experimentalvalue("CCn1c(N2CCc3[nH]ncc3C2)nnc1C(C)(C)Oc1c(F)cc(F)cc1F [Example 87, dihydrochloride]")
"> 10 µM"

The measurements presented in this section are drawn from patent US8377923B2.
